biological target: Tau in human Alzheimer disease brain homogenate (stage Braack V), [18F]-labeled Tau-Reference binder (Homo sapiens)
Sequence (P10636 623-695 limits assumed): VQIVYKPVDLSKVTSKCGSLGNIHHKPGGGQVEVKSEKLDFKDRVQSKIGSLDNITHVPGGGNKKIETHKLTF
observable: IC50

molecule=F[C@H]1CCCN(c2ccc3c(n2)[nH]c2ccncc23)C1 result="16 nM"
molecule="OC(CF)COC1CCN(c2ccc3c(n2)[nH]c2ccncc23)CC1 (stereo not drawn)" result="3 nM"
molecule=F[C@@H]1CCCN(c2ccc3c(n2)[nH]c2ccncc23)C1 result="5.4 nM"
molecule="FCC(F)COC1CCN(c2ccc3c(n2)[nH]c2ccncc23)CC1 (stereo not drawn)" result="8 nM"
molecule=FC1CC2(CCN(c3ccc4c(n3)[nH]c3ccncc34)CC2)C1 result="5.2 nM"
molecule=FCCOCCOC1CCN(c2ccc3c(n2)[nH]c2ccncc23)CC1 result="6 nM"
molecule=F[C@@H]1CCN(c2ccc3c(n2)[nH]c2ccncc23)C1 result="7 nM"
molecule=FCCOCCC1CCN(c2ccc3c(n2)[nH]c2ccncc23)CC1 result="1.5 nM"
molecule=FCCOC1CC2(C1)CN(c1ccc3c(n1)[nH]c1ccncc13)C2 result="16 nM"
molecule=FC1CCN(c2ccc3c(n2)[nH]c2ccncc23)CC1 result="3 nM"
molecule=FCCOC1CCN(c2ccc3c(n2)[nH]c2ccncc23)CC1 result="4 nM"
molecule=OC1(CF)CCN(c2ccc3c(n2)[nH]c2ccncc23)CC1 result="40 nM"
molecule=FC1CC2(C1)CN(c1ccc3c(n1)[nH]c1ccncc13)C2 result="13 nM"
molecule=F[C@H]1CCN(c2ccc3c(n2)[nH]c2ccncc23)C1 result="6 nM"
molecule=[2H]C([2H])(F)CCOC1CCN(c2ccc3c(n2)[nH]c2ccncc23)CC1 result="2.3 nM"

---

molecular target: MAO-B human-recombinant (Homo sapiens, UniProt P27338); construct: purchased Sigma-Aldrich M7441; assay: MAO-B assay (MAO-Glo); type: biochemical; settings: read-out: MAO B binding
Sequence (P27338 whole entry): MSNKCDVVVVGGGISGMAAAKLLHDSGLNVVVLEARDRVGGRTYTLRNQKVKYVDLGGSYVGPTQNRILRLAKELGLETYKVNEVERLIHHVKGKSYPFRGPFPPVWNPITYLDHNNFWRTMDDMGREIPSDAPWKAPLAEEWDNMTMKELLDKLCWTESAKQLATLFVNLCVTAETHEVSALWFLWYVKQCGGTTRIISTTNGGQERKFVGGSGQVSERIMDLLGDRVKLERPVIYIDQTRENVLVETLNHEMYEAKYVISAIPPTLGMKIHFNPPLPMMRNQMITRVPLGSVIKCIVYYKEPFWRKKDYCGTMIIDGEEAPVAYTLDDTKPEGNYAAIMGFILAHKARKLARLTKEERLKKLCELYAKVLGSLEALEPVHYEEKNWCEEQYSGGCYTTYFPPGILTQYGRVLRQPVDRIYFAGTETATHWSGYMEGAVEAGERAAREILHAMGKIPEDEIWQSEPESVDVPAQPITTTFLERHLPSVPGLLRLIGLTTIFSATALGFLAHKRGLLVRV
pIC50: −log10 of the molar value.
Reported pIC50 values follow for various compounds
observable: pIC50

compound="OC1(CF)CCN(c2ccc3c(n2)[nH]c2ccncc23)CC1 [Example 8]" observable=pIC50 result="< 6.00"
compound="FCCOC1CC2(C1)CN(c1ccc3c(n1)[nH]c1ccncc13)C2 [Example 13]" observable=pIC50 result="< 6.00"
compound="FC1CC2(C1)CN(c1ccc3c(n1)[nH]c1ccncc13)C2 [Example 12]" observable=pIC50 result="< 6.00"
compound="FCCOCCOC1CCN(c2ccc3c(n2)[nH]c2ccncc23)CC1 [Example 5]" observable=pIC50 result="< 6.00"
compound="OC(CF)COC1CCN(c2ccc3c(n2)[nH]c2ccncc23)CC1 (centres unmarked) [Example 7]" observable=pIC50 result="< 6.00"
compound="F[C@@H]1CCN(c2ccc3c(n2)[nH]c2ccncc23)C1 [Example 6]" observable=pIC50 result="< 6.00"
compound="FCCOC1CCN(c2ccc3c(n2)[nH]c2ccncc23)CC1 [Example 2]" observable=pIC50 result="< 6.00"
compound="F[C@H]1CCN(c2ccc3c(n2)[nH]c2ccncc23)C1 [Example 1]" observable=pIC50 result="< 6.00"

---

Molecular target: MAO-A human-recombinant (Homo sapiens)
Sequence (P21397 1-527): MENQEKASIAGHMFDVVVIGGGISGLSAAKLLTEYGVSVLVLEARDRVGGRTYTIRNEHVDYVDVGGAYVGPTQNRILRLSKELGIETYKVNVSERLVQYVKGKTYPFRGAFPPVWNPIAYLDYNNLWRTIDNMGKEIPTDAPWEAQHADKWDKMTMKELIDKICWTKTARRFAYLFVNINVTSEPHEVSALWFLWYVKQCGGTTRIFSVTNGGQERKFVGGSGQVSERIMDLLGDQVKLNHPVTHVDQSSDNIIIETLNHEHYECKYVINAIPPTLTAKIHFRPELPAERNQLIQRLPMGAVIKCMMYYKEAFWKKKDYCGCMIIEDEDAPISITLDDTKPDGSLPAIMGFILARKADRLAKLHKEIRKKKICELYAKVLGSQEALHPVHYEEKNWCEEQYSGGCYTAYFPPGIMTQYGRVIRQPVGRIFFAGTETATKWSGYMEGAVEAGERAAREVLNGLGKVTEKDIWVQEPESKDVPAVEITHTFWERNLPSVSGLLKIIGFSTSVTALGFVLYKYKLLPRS
Assay: Monoamine oxidase A (MAO-A) assay (MAO-Glo)
Details: read-out: MAO A binding
Experimental: Monoamine Oxidase A (MAO-A) Assay Compounds were tested for their capacity to modulate MAO-A activity within the MAO-Glo™ Assay (Promega, Cat.# V1402). […] The luminescent signal was subsequently measured and recorded on the TopCountNXT™ luminescence counter (PerkinElmer). Data were analyzed and graphs were prepared using the Graphpad Prism 6 software.
observable: IC50

smiles_structure=FC1CC2(C1)CN(c1ccc3c(n1)[nH]c1ccncc13)C2 result="570 nM"
smiles_structure=OC1(CF)CCN(c2ccc3c(n2)[nH]c2ccncc23)CC1 result="940 nM"
smiles_structure=F[C@@H]1CCN(c2ccc3c(n2)[nH]c2ccncc23)C1 result="940 nM"
smiles_structure=FCCOC1CC2(C1)CN(c1ccc3c(n1)[nH]c1ccncc13)C2 result="> 2000 nM"
smiles_structure=F[C@@H]1CCCN(c2ccc3c(n2)[nH]c2ccncc23)C1 result="1020 nM"
smiles_structure=FCCOCCOC1CCN(c2ccc3c(n2)[nH]c2ccncc23)CC1 result="> 2000 nM"
smiles_structure=F[C@H]1CCN(c2ccc3c(n2)[nH]c2ccncc23)C1 result="> 1000 nM"
smiles_structure=FCCOC1CCN(c2ccc3c(n2)[nH]c2ccncc23)CC1 result="> 6000 nM"

Cited source for all entries: patent US20180264146A1
